Reference for the values: patent US20240226314A1

# target_system: T1, His-tagged cynomolgus monkey TfR ectodomain (cyTFRC_89_760; mature protein) (cynomolgus monkey (Macaca fascicularis), UniProt Q5RDH6 89-760 (Pongo abelii entry))
# T1 construct: also called cTfR; cTfR ectodomain
# T1 chain: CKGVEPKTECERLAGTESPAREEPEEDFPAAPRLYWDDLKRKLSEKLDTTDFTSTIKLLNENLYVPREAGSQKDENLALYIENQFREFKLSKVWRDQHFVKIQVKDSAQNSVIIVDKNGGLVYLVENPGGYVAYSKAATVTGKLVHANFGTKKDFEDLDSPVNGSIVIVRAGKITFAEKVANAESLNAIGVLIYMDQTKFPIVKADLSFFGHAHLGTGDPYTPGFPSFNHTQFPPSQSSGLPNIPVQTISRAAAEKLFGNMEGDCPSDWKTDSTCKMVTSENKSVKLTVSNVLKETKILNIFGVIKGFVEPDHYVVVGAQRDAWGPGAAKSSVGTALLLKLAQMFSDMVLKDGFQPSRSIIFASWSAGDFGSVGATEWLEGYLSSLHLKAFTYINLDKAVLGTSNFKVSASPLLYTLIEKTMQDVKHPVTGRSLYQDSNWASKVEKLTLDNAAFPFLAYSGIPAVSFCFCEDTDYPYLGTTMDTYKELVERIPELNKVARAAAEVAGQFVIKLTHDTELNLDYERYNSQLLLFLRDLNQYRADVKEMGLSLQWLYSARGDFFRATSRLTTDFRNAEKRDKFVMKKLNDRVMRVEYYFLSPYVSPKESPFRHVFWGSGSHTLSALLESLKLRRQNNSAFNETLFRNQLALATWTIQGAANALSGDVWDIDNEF
# assay_text: SPR; KD on cTfR against KD on hTfR
# Procedure: Binding of the humanized Fab variants to human, cynomolgus and mouse TfR was assessed using SPR at pH 7.4. Experiments were run on a Bruker MASS-2 instrument with HBS-EP+ as running buffer and sample diluent (Cytiva Life Sciences, #BR100826). […] Concentration series of the humanized Fab variants were then injected for 4 min at 30 μL/min over hTfR surfaces and dissociation was monitored for 5 min. […]
Measured Cynomolgus/human KD ratio values are reported for all entries that follow.
Provide a numeric answer; units are not to be included.

Use the examples below as a reference point.
531_1L2_variant4 Fab (Fab, V domains shown, Humanized Fab; The His-tag was removed with TEV protease before SPR) VH: EVQLLESGGGLVQPGGSLRLSCAASGYTFTRYYLNWVRQAPGKGLEWIGMIDPSVSETHYADSVKGRATLSVDKSKNTAYLQMNSLRAEDTAVYYCSQIRLPYYYAMDSWGQGTTVTVSS VL: DIQMTQSPSSLSASVGDRVTITCRASQDINSFLNWYQQKPGKAVKLLIYYTSRLQSGVPSRFSGSGSGTDYTLTISSLQPEDFATYFCQQGNTLPRTFGGGTKVEIK	10.1
531_1L2_variant8 Fab (Fab, V domains shown, Humanized Fab; The His-tag was removed with TEV protease before SPR) VH: EVQLLESGGGLVQPGGSLRLSCAASGYTFTRYYLNWVRQAPGKGLEWIGMIDPSVSETHYADSVKGRATLSVDKSKNTAYLQMNSLRAEDTAVYYCSQIRLPYYYAMDSWGQGTTVTVSS VL: DIQMTQSPSSLSASVGDRVTITCRASQDISSFLNWYQQKPGKAVKLLIYYTSRLQSGVPSRFSGSGSGTDYTLTISSLQPEDFATYFCQQGNTLPRTFGGGTKVEIK	7.8

Next up:
Give the measured Cynomolgus/human KD ratio for 531_1L2_variant16 Fab (Fab, V domains shown, Humanized Fab; The His-tag was removed with TEV protease before SPR) VH: QVQLVQSGAEVKKPGASVKVSCKASGYTFTRYYLNWVRQAPGQGLEWIGMIDPSVSETHYAQKFQGRATLTVDKSTSTAYMELSSLRSEDTAVYYCSQIRLPYYYAMDSWGQGTTVTVSS VL: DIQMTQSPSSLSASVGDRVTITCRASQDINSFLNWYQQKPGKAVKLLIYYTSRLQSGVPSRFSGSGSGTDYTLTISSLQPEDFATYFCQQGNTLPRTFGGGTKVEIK
6.9
